Please respond with reported glycan array binding signal (z-score) for every item in the list.
system.name: GlcNAc(b1-4)GlcNAc
assay.explanation: glycan array binding signal (z-score within array); higher = stronger binding
run.conditions: glycan notation: IUPAC condensed, linker removed
The entries come from a sample that favours the strongest signals as a whole.
One number for each entry.

Illustrative cases are given below, each with its answer.
>  <binder>
LlpA1 (Pseudomonas fluorescens), Q4KHC3 (protein) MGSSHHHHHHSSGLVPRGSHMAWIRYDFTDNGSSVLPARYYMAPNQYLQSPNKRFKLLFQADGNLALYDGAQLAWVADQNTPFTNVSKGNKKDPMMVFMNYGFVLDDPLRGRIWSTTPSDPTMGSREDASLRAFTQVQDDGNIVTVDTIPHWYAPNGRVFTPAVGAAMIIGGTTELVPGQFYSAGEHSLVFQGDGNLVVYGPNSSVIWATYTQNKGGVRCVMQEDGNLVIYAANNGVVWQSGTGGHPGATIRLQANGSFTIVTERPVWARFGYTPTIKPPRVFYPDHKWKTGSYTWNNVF

>  <value.measured>
0.141

$$$$
>  <binder>
ASAL (Allium sativum), P83886 (protein) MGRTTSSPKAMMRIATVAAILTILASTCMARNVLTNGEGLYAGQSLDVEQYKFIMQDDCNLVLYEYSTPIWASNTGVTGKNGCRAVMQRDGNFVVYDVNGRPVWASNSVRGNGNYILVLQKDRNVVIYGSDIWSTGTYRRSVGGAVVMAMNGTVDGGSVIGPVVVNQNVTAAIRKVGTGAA

>  <value.measured>
-0.252

$$$$
>  <binder>
Gal 8 (Homo sapiens), O00214 (protein) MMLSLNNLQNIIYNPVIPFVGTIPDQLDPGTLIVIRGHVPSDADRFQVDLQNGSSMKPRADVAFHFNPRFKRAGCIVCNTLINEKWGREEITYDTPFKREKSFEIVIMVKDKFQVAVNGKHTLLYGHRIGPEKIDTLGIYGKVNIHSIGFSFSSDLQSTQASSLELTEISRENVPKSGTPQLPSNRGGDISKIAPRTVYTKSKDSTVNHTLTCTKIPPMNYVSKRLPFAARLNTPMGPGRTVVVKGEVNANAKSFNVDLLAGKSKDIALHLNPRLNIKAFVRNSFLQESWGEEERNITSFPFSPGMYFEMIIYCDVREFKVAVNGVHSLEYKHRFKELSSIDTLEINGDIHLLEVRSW

>  <value.measured>
-0.449

$$$$

input: Which glycan array binding signal (z-score) is reported for this binder? LgFlo1 (Saccharomyces pastorianus), B3IUA8 (protein) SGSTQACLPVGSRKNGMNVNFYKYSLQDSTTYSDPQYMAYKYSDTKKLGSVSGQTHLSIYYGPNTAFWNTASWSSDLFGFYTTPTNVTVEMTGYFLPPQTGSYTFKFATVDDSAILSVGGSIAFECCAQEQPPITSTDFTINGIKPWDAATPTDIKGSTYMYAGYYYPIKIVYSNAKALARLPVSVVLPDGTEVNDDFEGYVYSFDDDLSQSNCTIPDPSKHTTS
output: -0.042
